# Tested on: L-selectin (CD62L)
# protocol-summary: Cell surface expression of L-selectin in human neutrophils (immunofluorescence flow cytometry)
# Type: cell-based
# settings: converted from μg/ml values; read-out: IC50 for L-selectin down-regulation, corrected for molecular weight
measured-metric: IC50 (µM)
Write the answer as a number in µM, unit excluded.

{"columns": ["molecule", "target-entity", "IC50 / µM"],
 "data": [
  ["CCCCCCCCCCCCCCCCCCOCC(COP(=O)([O-])OCC[N+](C)(C)C)OC (centres unmarked) [IEC01, Edelfosine]", "L-selectin (CD62L)", 0.194]
]}

Proceed to the following item.
Query: For the molecule O=C(O)COC(=O)Cc1ccccc1Nc1c(Cl)cccc1Cl [aceclofenac, reference compound] , give its reported IC50.
Reply: 14.1
